Each entry below lists one item and its recorded IC50 value.
Target: recombinant Aurora A (Homo sapiens)
Sequence (O14965 whole entry): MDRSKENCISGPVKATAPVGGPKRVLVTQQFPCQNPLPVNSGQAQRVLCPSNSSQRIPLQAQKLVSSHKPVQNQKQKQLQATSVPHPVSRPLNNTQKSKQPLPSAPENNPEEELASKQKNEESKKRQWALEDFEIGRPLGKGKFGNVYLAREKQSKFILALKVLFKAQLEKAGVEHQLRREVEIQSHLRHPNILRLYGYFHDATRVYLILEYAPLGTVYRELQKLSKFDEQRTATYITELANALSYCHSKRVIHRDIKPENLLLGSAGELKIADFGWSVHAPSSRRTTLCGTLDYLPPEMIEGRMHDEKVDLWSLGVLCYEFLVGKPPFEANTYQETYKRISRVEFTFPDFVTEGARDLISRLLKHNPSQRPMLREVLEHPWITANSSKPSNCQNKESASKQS
Assay: PanVera Z'-Lyte Aurora kinase assay
Conditions: Z'-Lyte Ser/Thr 1 peptide 2 μM, ATP 10 μM, 1 h

Example entries and their recorded answers appear below.
{"columns": ["item_smiles", "IC50"],
 "data": [
  ["Cc1cc(Nc2nc(Sc3ccc(NC(=O)C4CC4)cc3)nc(C(=O)N3CCN(C)CC3)c2N)n[nH]1", "1000 to 10000 nM"],
  ["Cc1cc(Nc2nc(Sc3ccc(NC(=O)C4CC4)cc3)nc(C(=O)NC(C)(C)C)c2N)n[nH]1", "100 to 1000 nM"],
  ["COCCCNC(=O)c1nc(Sc2ccc(NC(=O)C3CC3)cc2)nc(Nc2cc(C)[nH]n2)c1N", "< 100 nM"]
]}

Next, consider the following compound.
Query string: // query IC50 value for entry "COCCNC(=O)c1nc(Sc2ccc(NC(=O)C3CC3)cc2)nc(Nc2cc(C)[nH]n2)c1N"
Result string: < 100 nM

---

Tested on: HCT 116 Cells
Assay: Aurora kinase whole cell cytotoxicity assay: Sulforhodamine B
Format: cell-based
Conditions: Homo sapiens, HCT116, SRB staining, 96 hours incubation
endpoint: GI50

Look over these answered cases.
{"columns": ["item_smiles", "GI50"],
 "data": [
  ["Cc1cc(Nc2nc(Sc3ccc(NC(=O)C4CC4)cc3)nc(C(=O)NC(C)(C)C)c2N)n[nH]1", "1000 to 10000 nM"],
  ["CSCCNC(=O)c1nc(Sc2ccc(NC(=O)C3CC3)cc2)nc(Nc2cc(C)[nH]n2)c1N", "100 to 1000 nM"],
  ["Cc1cc(Nc2nc(Sc3ccc(NC(=O)C4CC4)cc3)nc(C(=O)NCCN3CCOCC3)c2N)n[nH]1", "100 to 1000 nM"]
]}

As a next step, examine the compound that follows.
Query string: Item "Cc1cc(Nc2nc(Sc3ccc(NC(=O)C4CC4)cc3)nc(C(=O)OC3CCCCC3)c2N)n[nH]1" with HCT 116 Cells - GI50?
Result string: 100 to 1000 nM

---

Tested on: HCT 116 Cells
Experiment: Aurora kinase whole cell cytotoxicity assay: Sulforhodamine B
Type: cell-based
Conditions: Homo sapiens, HCT116, SRB staining, 96 hours incubation
Method: Human tumour-derived cell lines, HCT116 or MCF7 (ATCC) were plated in a 96 well plate in DMEM containing 10% fetal bovine serum and 2 mM L-glutamine at a density of 500 HCT116 cells or 1,000 MCF7 cells per well and incubated at 37° C., 5% CO2, for 24 hours prior to the addition of experimental compounds. […] The absorbance was read at 570 nm. […] Three dose response parameters were calculated for each experimental agent. […]
Recorded GI50 for the following compounds

Example compounds with recorded GI50:
{"columns": ["compound", "endpoint", "result"],
 "data": [
  ["COCC(C)NC(=O)c1nc(Sc2ccc(NC(=O)C3CC3)cc2)nc(Nc2cc(C)[nH]n2)c1N (stereo not drawn)", "GI50", "100 to 1000 nM"],
  ["Cc1cc(Nc2nc(Sc3ccc(NC(=O)C4CC4)cc3)nc(C(=O)Nc3ccncc3)c2N)n[nH]1", "GI50", "1000 to 10000 nM"],
  ["Cc1cc(Nc2nc(Sc3ccc(NC(=O)C4CC4)cc3)nc(C(=O)OC(C)C)c2N)n[nH]1", "GI50", "100 to 1000 nM"],
  ["COCCOC(=O)c1nc(Sc2ccc(NC(=O)C3CC3)cc2)nc(Nc2cc(C)[nH]n2)c1N", "GI50", "100 to 1000 nM"],
  ["COCCNC(=O)c1nc(Sc2ccc(NC(=O)C3CC3)cc2)nc(Nc2cc(C)[nH]n2)c1N", "GI50", "100 to 1000 nM"]
]}

Query string: # lookup: GI50 of "Cc1cc(Nc2nc(Sc3ccc(NC(=O)C4CC4)cc3)nc(C(=O)OCCN3CCCCC3)c2N)n[nH]1"
Result string: 1000 to 10000 nM
